- Assay remarks: DDI study: pharmacokinetics of zanubrutinib in rats alone or with fluconazole / isavuconazole
- Type: in vivo, Sprague–Dawley (SD) rats
- Condition parameters: Sprague-Dawley, rat, plasma, po, 30 mg/kg, rats, zanubrutinib 30 mg/kg gavage; Group A: the control group (0.5% CMC-Na); n = 6, mean ± SD
Measured attribute: half-life (h)

1. C=CC(=O)N1CCC([C@@H]2CCNc3c(C(N)=O)c(-c4ccc(Oc5ccccc5)cc4)nn32)CC1 1.34
